- Tested on: Escherichia coli TOP10
- PROCEDURE SUMMARY: shrunken log2 fold change of peptide-encoding DNA abundance (4.5 h post-induction vs induction); higher = less antimicrobial activity (less host growth inhibition)
- APPLIED CONDITIONS: time post-induction: 4.5 h; library: site-saturation at positions 5, 18, 19, 20
Some sequences, each annotated with its measured shrunken log2 fold change.
Number only, please.

Reported shrunken log2 fold change of RRIRNRPPRLPRPRPRPFHKPRP : -0.107

Reported shrunken log2 fold change of RRIRFRPPRLPRPRPRPNWRPRP : -0.0764

Reported shrunken log2 fold change of RRIRWRPPRLPRPRPRPIHVPRP : -0.0677

* * *

- Tested on: Escherichia coli TOP10
- PROCEDURE SUMMARY: shrunken log2 fold change of peptide-encoding DNA abundance (4.5 h post-induction vs induction); higher = less antimicrobial activity (less host growth inhibition)
- APPLIED CONDITIONS: time post-induction: 4.5 h; library: site-saturation at positions 5, 18, 19, 20
Would you mind labelling by shrunken log2 fold change? At or over 0.03 is criterion met, under is criterion not met.

>  <SEQUENCE STRING>
RRIRFRPPRLPRPRPRPMHKPRP

>  <LABEL>
criterion not met

$$$$
>  <SEQUENCE STRING>
RRIRVRPPRLPRPRPRPRPNPRP

>  <LABEL>
criterion met

$$$$
>  <SEQUENCE STRING>
RRIRWRPPRLPRPRPRPYRFPRP

>  <LABEL>
criterion not met

$$$$
>  <SEQUENCE STRING>
RRIRWRPPRLPRPRPRPKMKPRP

>  <LABEL>
criterion met

$$$$
>  <SEQUENCE STRING>
RRIRWRPPRLPRPRPRPRNSPRP

>  <LABEL>
criterion met

$$$$

Request: Dear colleague, could you confirm whether RRIRHRPPRLPRPRPRPMPPPRP has shrunken log2 fold change at or above 0.03?
Response: criterion not met

Request: Dear colleague, could you confirm whether RRIRTRPPRLPRPRPRPVSDPRP has shrunken log2 fold change at or above 0.03?
Response: criterion not met

Request: Dear colleague, could you confirm whether RRIRDRPPRLPRPRPRPCSRPRP has shrunken log2 fold change at or above 0.03?
Response: criterion not met

Request: Dear colleague, could you confirm whether RRIRFRPPRLPRPRPRPEKPPRP has shrunken log2 fold change at or above 0.03?
Response: criterion not met

Request: Dear colleague, could you confirm whether RRIRTRPPRLPRPRPRPPRTPRP has shrunken log2 fold change at or above 0.03?
Response: criterion met

Request: Dear colleague, could you confirm whether RRIRNRPPRLPRPRPRPYWEPRP has shrunken log2 fold change at or above 0.03?
Response: criterion not met

Request: Dear colleague, could you confirm whether RRIRMRPPRLPRPRPRPELHPRP has shrunken log2 fold change at or above 0.03?
Response: criterion met

Request: Dear colleague, could you confirm whether RRIRHRPPRLPRPRPRPAYIPRP has shrunken log2 fold change at or above 0.03?
Response: criterion not met

Request: Dear colleague, could you confirm whether RRIRCRPPRLPRPRPRPDMDPRP has shrunken log2 fold change at or above 0.03?
Response: criterion not met

Request: Dear colleague, could you confirm whether RRIRYRPPRLPRPRPRPDNDPRP has shrunken log2 fold change at or above 0.03?
Response: criterion not met

Request: Dear colleague, could you confirm whether RRIRVRPPRLPRPRPRPMFIPRP has shrunken log2 fold change at or above 0.03?
Response: criterion not met

Request: Dear colleague, could you confirm whether RRIRFRPPRLPRPRPRPAMCPRP has shrunken log2 fold change at or above 0.03?
Response: criterion not met

Request: Dear colleague, could you confirm whether RRIRKRPPRLPRPRPRPLEIPRP has shrunken log2 fold change at or above 0.03?
Response: criterion met

Request: Dear colleague, could you confirm whether RRIRARPPRLPRPRPRPLVEPRP has shrunken log2 fold change at or above 0.03?
Response: criterion met

Request: Dear colleague, could you confirm whether RRIRDRPPRLPRPRPRPNCFPRP has shrunken log2 fold change at or above 0.03?
Response: criterion met

Request: Dear colleague, could you confirm whether RRIRRRPPRLPRPRPRPCEFPRP has shrunken log2 fold change at or above 0.03?
Response: criterion not met

Request: Dear colleague, could you confirm whether RRIRERPPRLPRPRPRPHIFPRP has shrunken log2 fold change at or above 0.03?
Response: criterion met

* * *

Some sequences, each annotated with its measured shrunken log2 fold change.
- Test system: Escherichia coli TOP10
- PROCEDURE SUMMARY: shrunken log2 fold change of peptide-encoding DNA abundance (4.5 h post-induction vs induction); higher = less antimicrobial activity (less host growth inhibition)
- APPLIED CONDITIONS: time post-induction: 4.5 h; library: site-saturation at positions 5, 18, 19, 20
Number only, please.

>  <SEQUENCE STRING>
RRIRTRPPRLPRPRPRPMSEPRP

>  <STUDY SYSTEM>
Escherichia coli TOP10

>  <shrunken log2 fold change>
-0.00136

$$$$

Reported shrunken log2 fold change of RRIRGRPPRLPRPRPRPPNYPRP : 0.299

Reported shrunken log2 fold change of RRIRYRPPRLPRPRPRPGCGPRP : -0.0402

Reported shrunken log2 fold change of RRIRHRPPRLPRPRPRPDTYPRP : -0.24

* * *

- System: Escherichia coli TOP10
- PROCEDURE SUMMARY: shrunken log2 fold change of peptide-encoding DNA abundance (4.5 h post-induction vs induction); higher = less antimicrobial activity (less host growth inhibition)
- APPLIED CONDITIONS: time post-induction: 4.5 h; library: site-saturation at positions 5, 18, 19, 20
Output: class label from shrunken log2 fold change. Mapping: low bin (below -0.09), mid bin (-0.09 to below 0.1), high bin (0.1 or more)

>  <SEQUENCE STRING>
RRIRRRPPRLPRPRPRPTKHPRP

>  <LABEL>
high bin

$$$$
>  <SEQUENCE STRING>
RRIRSRPPRLPRPRPRPCFMPRP

>  <LABEL>
high bin

$$$$
>  <SEQUENCE STRING>
RRIRSRPPRLPRPRPRPQRRPRP

>  <LABEL>
high bin

$$$$
>  <SEQUENCE STRING>
RRIRQRPPRLPRPRPRPYMYPRP

>  <LABEL>
mid bin

$$$$
>  <SEQUENCE STRING>
RRIRFRPPRLPRPRPRPRWIPRP

>  <LABEL>
mid bin

$$$$
>  <SEQUENCE STRING>
RRIRPRPPRLPRPRPRPTNLPRP

>  <LABEL>
low bin

$$$$

Request: Bin? RRIRYRPPRLPRPRPRPPEGPRP
Response: low bin

Request: Bin? RRIRHRPPRLPRPRPRPPIMPRP
Response: low bin

Request: Bin? RRIRVRPPRLPRPRPRPSYPPRP
Response: low bin

Request: Bin? RRIRERPPRLPRPRPRPNWVPRP
Response: mid bin

Request: Bin? RRIRCRPPRLPRPRPRPCGGPRP
Response: high bin

Request: Bin? RRIRYRPPRLPRPRPRPDPLPRP
Response: mid bin

Request: Bin? RRIRLRPPRLPRPRPRPMWIPRP
Response: low bin

Request: Bin? RRIRARPPRLPRPRPRPITAPRP
Response: high bin

Request: Bin? RRIRWRPPRLPRPRPRPPFYPRP
Response: mid bin

Request: Bin? RRIRCRPPRLPRPRPRPRVHPRP
Response: low bin

* * *

- Test system: Escherichia coli TOP10;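 further: peptides expressed intracellularly from a pBAD plasmid library in pooled LB shake-flask culture, induced with 0.3% L-arabinose, DNA abundance read by NGS, three biological replicates, DESeq2 with apeglm shrinkage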
- PROCEDURE SUMMARY: shrunken log2 fold change of peptide-encoding DNA abundance (4.5 h post-induction vs induction); higher = less antimicrobial activity (less host growth inhibition)
- APPLIED CONDITIONS: time post-induction: 4.5 h; library: site-saturation at positions 5, 18, 19, 20
ASSAY ENDPOINT: shrunken log2 fold change
Number only, please.

>  <SEQUENCE STRING>
RRIRTRPPRLPRPRPRPMFNPRP

>  <shrunken log2 fold change>
-0.643

$$$$
>  <SEQUENCE STRING>
RRIRPRPPRLPRPRPRPLRGPRP

>  <shrunken log2 fold change>
0.792

$$$$
>  <SEQUENCE STRING>
RRIRHRPPRLPRPRPRPMWAPRP

>  <shrunken log2 fold change>
-0.0936

$$$$
>  <SEQUENCE STRING>
RRIRPRPPRLPRPRPRPPWQPRP

>  <shrunken log2 fold change>
0.443

$$$$
>  <SEQUENCE STRING>
RRIRDRPPRLPRPRPRPGNYPRP

>  <shrunken log2 fold change>
-0.0159

$$$$

Reported shrunken log2 fold change of RRIRTRPPRLPRPRPRPDWDPRP : 0.223

Reported shrunken log2 fold change of RRIRRRPPRLPRPRPRPHYAPRP : 0.148

Reported shrunken log2 fold change of RRIRSRPPRLPRPRPRPKQNPRP : 0.0535

Reported shrunken log2 fold change of RRIRTRPPRLPRPRPRPFTQPRP : -0.487

Reported shrunken log2 fold change of RRIRRRPPRLPRPRPRPELWPRP : 0.518

Reported shrunken log2 fold change of RRIRHRPPRLPRPRPRPICVPRP : 0.0683

Reported shrunken log2 fold change of RRIRCRPPRLPRPRPRPWASPRP : 0.0212
